Give MIC for every item shown.
# Test system: Ser. marcescens ES-75
One number for each entry, in µg/mL.

Previously resolved entries follow.
compound	readout	units of measure	numeric readout
NC(=O)c1cc[n+](CC2=C(C(=O)[O-])N3C(=O)[C@@H](NC(=O)[C@H](NC(=O)c4coc5cc(O)c(O)cc5c4=O)c4ccc(OCC(=O)O)cc4)[C@H]3SC2)cc1 [Example 45]	MIC	µg/mL	0.8
Cc1oc2cc(O)c(O)cc2c(=O)c1C(=O)N[C@@H](C(=O)N[C@@H]1C(=O)N2C(C(=O)[O-])=C(C[n+]3ccccc3)CS[C@H]12)c1ccc(OCC(=O)O)cc1 [Example 40]	MIC	µg/mL	0.6
CCn1cc(C(=O)N[C@@H](C(=O)N[C@@H]2C(=O)N3C(C(=O)O)=C(COC(C)=O)CS[C@H]23)c2ccc(OCC(=O)O)cc2)c(=O)c2cc(O)c(O)cc21 [Example 35]	MIC	µg/mL	1.56
CO[C@@]1(NC(=O)[C@H](NC(=O)c2coc3cc(O)c(O)cc3c2=O)c2ccc(OCC(=O)O)cc2)C(=O)N2C(C(=O)O)=C(CSc3nnnn3CC(=O)O)CS[C@@H]21 [Example 30]	MIC	µg/mL	0.2

Now consider the entry below.
Q) For the compound Cn1nnnc1SCC1=C(C(=O)O)N2C(=O)[C@@H](NC(=O)[C@H](NC(=O)c3coc4c(O)c(O)ccc4c3=O)c3ccc(OCC(=O)O)cc3)[C@H]2SC1 [Example 9] , what MIC is on record?
A) 0.2

----------
# System: Pseud. aeruginosa EP-01
# assay remarks: Antibacterial activities (MIC), Pseud. aeruginosa EP-01
# Type: cell-based
# condition details: Pseudomonas aeruginosa, EP01
Give MIC for every item shown.
Give bare numbers, in µg/mL.

Hi team, please reply with MIC for each item in this list.
1. CO[C@@]1(NC(=O)[C@H](NC(=O)c2coc3cc(O)c(O)cc3c2=O)c2ccc(OCC(=O)O)cc2)C(=O)N2C(C(=O)O)=C(COC(C)=O)CS[C@@H]21
2. CO[C@@]1(NC(=O)[C@H](NC(=O)c2coc3cc(O)c(O)cc3c2=O)c2ccc(OCC(=O)O)cc2)C(=O)N2C(C(=O)[O-])=C(C[n+]3ccc(C(N)=O)cc3)CS[C@@H]21
3. Cc1oc2c(O)c(O)ccc2c(=O)c1C(=O)N[C@@H](C(=O)N[C@@H]1C(=O)N2C(C(=O)O)=C(CSc3nnnn3CC(=O)O)CS[C@H]12)c1ccc(OCC(=O)O)cc1

A)
[0.4, 0.4, 0.8]

Q) For the compound "CO[C@@]1(NC(=O)[C@H](NC(=O)c2c(C)oc3c(OC(C)=O)c(OC(C)=O)ccc3c2=O)c2ccc(OCC(=O)O)cc2)C(=O)N2C(C(=O)O)=C(CSc3nnnn3CC(=O)O)CS[C@@H]21" , what MIC is on record?
A) 0.8

----------
Give MIC for every item shown.
# Test system: Pseud. aeruginosa EP-01
# assay remarks: Antibacterial activities (MIC), Pseud. aeruginosa EP-01
# Type: cell-based
# condition details: Pseudomonas aeruginosa, EP01
One number for each entry, in µg/mL.

Hi team, please reply with MIC for each item in this list.
1. Cc1oc2cc(O)c(O)cc2c(=O)c1C(=O)N[C@@H](C(=O)N[C@@H]1C(=O)N2C(C(=O)[O-])=C(C[n+]3ccccc3)CS[C@H]12)c1ccc(OCC(=O)O)cc1
2. CO[C@@]1(NC(=O)[C@H](NC(=O)c2c(C)oc3cc(O)c(O)cc3c2=O)c2ccc(OCC(=O)O)cc2)C(=O)N2C(C(=O)[O-])=C(C[n+]3ccc(C(N)=O)cc3)CS[C@@H]21
3. CO[C@@]1(NC(=O)[C@H](NC(=O)c2c(C)oc3cc(O)c(O)cc3c2=O)c2ccc(OCC(=O)O)cc2)C(=O)N2C(C(=O)O)=C(CSc3nnnn3CC(=O)O)CS[C@@H]21

A)
1. 0.2
2. 0.4
3. 0.4

Just for reference, patent US4546176A is where these values come from.
